# Tested target: Penicillin-binding protein 2B (Streptococcus pneumoniae serotype 4 (strain ATCC BAA-334 / TIGR4))
# Sequence (P0A3M5 whole entry): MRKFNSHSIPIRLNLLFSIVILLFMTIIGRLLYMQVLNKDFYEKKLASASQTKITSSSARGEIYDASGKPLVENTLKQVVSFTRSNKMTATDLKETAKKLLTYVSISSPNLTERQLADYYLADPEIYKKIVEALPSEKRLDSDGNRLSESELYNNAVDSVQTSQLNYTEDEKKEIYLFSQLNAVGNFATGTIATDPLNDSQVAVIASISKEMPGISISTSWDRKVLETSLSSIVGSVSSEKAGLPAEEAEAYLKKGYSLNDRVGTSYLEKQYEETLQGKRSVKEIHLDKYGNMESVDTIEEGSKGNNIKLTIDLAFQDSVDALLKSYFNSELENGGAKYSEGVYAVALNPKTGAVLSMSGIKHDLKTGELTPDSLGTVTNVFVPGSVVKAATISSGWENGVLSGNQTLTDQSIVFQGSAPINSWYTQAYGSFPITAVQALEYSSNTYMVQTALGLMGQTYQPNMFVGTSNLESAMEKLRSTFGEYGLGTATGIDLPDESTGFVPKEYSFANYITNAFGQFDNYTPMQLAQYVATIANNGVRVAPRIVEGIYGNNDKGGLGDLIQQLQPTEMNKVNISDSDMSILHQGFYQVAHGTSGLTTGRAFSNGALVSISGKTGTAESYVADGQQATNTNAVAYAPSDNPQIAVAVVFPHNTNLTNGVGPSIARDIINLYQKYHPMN
# Protocol text: Displacement of Biocillin FL from Streptococcus pneumoniae 3665 PBP2B
pIC50: −log10 of the molar value.
Decide by pIC50: equal to or exceeding 6 means Criterion met, less means Criterion not met.

# Molecule, Group
rows = [
    ("C[C@@H](O)[C@H]1C(=O)N2C(C(=O)O)=C(SCCNC=N)C[C@H]12 [IMIPENEM ANHYDROUS]", "Criterion not met"),
    ("CC1(C)S[C@@H]2[C@H](NC(=O)Cc3ccccc3)C(=O)N2[C@H]1C(=O)O [PENICILLIN G]", "Criterion met"),
    ("C[C@@H](O)[C@H]1C(=O)N2C(C(=O)O)=C([C@H]3CCCO3)S[C@H]12 [FAROPENEM]", "Criterion met"),
    ("CO/N=C(\\C(=O)N[C@@H]1C(=O)N2C(C(=O)O)=C(COC(N)=O)CS[C@H]12)c1ccco1 [CEFUROXIME]", "Criterion not met"),
    ("CC1(C)S[C@@H]2[C@H](NC(=O)[C@H](N)c3ccc(O)cc3)C(=O)N2[C@H]1C(=O)O [AMOXICILLIN]", "Criterion met"),
]

---

# Tested target: Penicillin-binding protein 1A (Streptococcus pneumoniae serotype 4 (strain ATCC BAA-334 / TIGR4))
# Protocol text: Displacement of Biocillin FL from Streptococcus pneumoniae 2527 PBP1A
Parameter measured: IC50 (µM)

# Compound, Value observed
measured = [
    ("CO/N=C(\\C(=O)N[C@@H]1C(=O)N2C(C(=O)O)=C(COC(N)=O)CS[C@H]12)c1ccco1", 0.0141),
    ("CC1(C)S[C@@H]2[C@H](NC(=O)[C@H](N)c3ccc(O)cc3)C(=O)N2[C@H]1C(=O)O", 0.134),
    ("CC1(C)S[C@@H]2[C@H](NC(=O)Cc3ccccc3)C(=O)N2[C@H]1C(=O)O", 0.00598),
    ("C[C@@H](O)[C@H]1C(=O)N2C(C(=O)O)=C(SCCNC=N)C[C@H]12 [IMIPENEM ANHYDROUS]", 0.14),
    ("C[C@@H](O)[C@H]1C(=O)N2C(C(=O)O)=C([C@H]3CCCO3)S[C@H]12", 0.0806),
]

---

Below is a list of entries, each paired with its recorded log10(IC50) value.
# Tested target: Penicillin-binding protein 1A (Streptococcus pneumoniae serotype 4 (strain ATCC BAA-334 / TIGR4), UniProt Q04707)
# Sequence (Q04707 whole entry): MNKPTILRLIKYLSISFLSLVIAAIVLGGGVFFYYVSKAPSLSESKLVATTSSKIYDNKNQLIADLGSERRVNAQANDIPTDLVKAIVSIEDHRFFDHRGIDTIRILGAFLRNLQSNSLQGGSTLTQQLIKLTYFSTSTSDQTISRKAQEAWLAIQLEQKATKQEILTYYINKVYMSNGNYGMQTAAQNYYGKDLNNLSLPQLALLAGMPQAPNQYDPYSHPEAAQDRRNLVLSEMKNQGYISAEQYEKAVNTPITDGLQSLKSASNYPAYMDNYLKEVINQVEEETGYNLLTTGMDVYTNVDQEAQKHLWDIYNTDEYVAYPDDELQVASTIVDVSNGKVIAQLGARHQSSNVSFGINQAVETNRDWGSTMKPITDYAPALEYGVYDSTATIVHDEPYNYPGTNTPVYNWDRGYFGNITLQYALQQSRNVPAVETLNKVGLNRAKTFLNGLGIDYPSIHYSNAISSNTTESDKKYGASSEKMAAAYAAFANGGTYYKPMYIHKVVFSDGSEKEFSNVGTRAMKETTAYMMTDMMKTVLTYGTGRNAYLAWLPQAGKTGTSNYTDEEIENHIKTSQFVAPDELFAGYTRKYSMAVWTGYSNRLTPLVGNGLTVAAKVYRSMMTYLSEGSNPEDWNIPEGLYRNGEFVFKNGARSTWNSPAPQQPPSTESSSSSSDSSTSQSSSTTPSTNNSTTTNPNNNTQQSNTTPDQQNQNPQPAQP
# Protocol text: Displacement of Biocillin FL from Streptococcus pneumoniae 24 PBP1A
Parameter measured: log10(IC50) (log10 of the value in nM)

# Molecule, log10(IC50)
data = [
    ("CC1(C)S[C@@H]2[C@H](NC(=O)Cc3ccccc3)C(=O)N2[C@H]1C(=O)O", 1.38),
    ("C[C@@H](O)[C@H]1C(=O)N2C(C(=O)O)=C(SCCNC=N)C[C@H]12 [IMIPENEM ANHYDROUS]", 3.17),
    ("CO/N=C(\\C(=O)N[C@@H]1C(=O)N2C(C(=O)O)=C(COC(N)=O)CS[C@H]12)c1ccco1", 0.97),
    ("C[C@@H](O)[C@H]1C(=O)N2C(C(=O)O)=C([C@H]3CCCO3)S[C@H]12", 1.50),
    ("CC1(C)S[C@@H]2[C@H](NC(=O)[C@H](N)c3ccc(O)cc3)C(=O)N2[C@H]1C(=O)O", 1.04),
]
